- study.system: T1, human LILRB1 recombinant protein (human, UniProt Q8NHL6 24-461)
- T1 construct: The ELISA method says only 'LILRB1 recombinant proteins' coated on plates; also called leukocyte immunoglobulin-like receptor subfamily B member 1
- T1 sequence (Q8NHL6 24-461 limits assumed): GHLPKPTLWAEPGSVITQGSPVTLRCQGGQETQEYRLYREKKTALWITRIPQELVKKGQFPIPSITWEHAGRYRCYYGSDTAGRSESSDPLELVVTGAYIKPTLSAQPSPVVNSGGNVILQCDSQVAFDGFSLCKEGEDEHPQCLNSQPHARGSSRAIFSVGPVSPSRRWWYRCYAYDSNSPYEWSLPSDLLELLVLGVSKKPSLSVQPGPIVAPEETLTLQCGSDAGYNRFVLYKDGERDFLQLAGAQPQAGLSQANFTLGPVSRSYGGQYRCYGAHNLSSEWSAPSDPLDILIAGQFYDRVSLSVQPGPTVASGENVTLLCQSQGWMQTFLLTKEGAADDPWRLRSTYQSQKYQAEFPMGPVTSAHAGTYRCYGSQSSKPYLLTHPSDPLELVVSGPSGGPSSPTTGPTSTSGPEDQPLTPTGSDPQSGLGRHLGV
- test: ELISA, B cell supernatant
# maps each entry to its OD450
Express it in OD450; write the number only.

The cases that follow already have their OD450 on record.
mAb of B cell clone 154 (supernatant) (antibody, V domains shown, rabbit) VH: QSVKESGGDLVKPGASLTLTCKASGFSFSSGHYMYWVRQAPGKGLEWIACIYAGSDTGSTWYASWAKGRFTISKTSSTTVTLQMTSLTAADTATYFCARSSNSYGNYGVSNLWGPGTLVTVSS VL: ELDLTQTPASVEAAVRGTVTIKCQASQSISYYLAWYQQKPGQPPKVLIYKASTLASGVPPRFKGSGFGTEFTLTISDLECADAATYYCQSTYGRDNNDLFFAFGGGTEVEIK :: 1.98
mAb of B cell clone 173 (supernatant) (antibody, V domains shown, rabbit) VH: QSVEESGGDLVKPGASLTLTCTASGFDFSSNAYLCWVRQAPGKGLEWIGCIYDGTSGDTYYANWAKGRFTISRSSSTTVTLQMTSLTAADTATYFCARDTRSSNYYFNLWGPGTLVTISS VL: ELVLTQTPSSTSAAVGGTVTINCQASQSVDNNKQLSWYQQKPGQPPKQLIYSASKLASGVPSRFKGSGSGTQFTLTISDLECDDAATYYCAGYYYSGSATDAWAFGGATEVEIN :: 2.14

Next item in the queue.
Q) Given the entry mAb of B cell clone 19 (supernatant) (antibody, V domains shown, rabbit; also called B1-#19) VH: EQSVEESGGGLVKPEGSLTLTCKASGLDFSSSYWSCWVRQTPGRGLEWIGCIDVGSSGGSYYASWARGRFTVSKGSSTTVTLQMTSLTAADTATYFCASTTTNVFGYDLWGPGTLVTVSS VL: ELDLTQTPASVSEPVGGTVTIKCQASQNIYNNLAWYQQKPGQPPKLLIYYASTLASGVPPRFSGSGSGTEYTLTISDLECDDAATYYCQNNAGIYGGYGHGFGGGTEVVVK , report its measured OD450.
A) 2.32
